Listing: Dmax of selected compounds
Biological target: IRAK4 protein in normal human PBMCs (Homo sapiens, UniProt Q9NWZ3)
Construct: host or cells: normal human PBMCs
Sequence (Q9NWZ3 1-460): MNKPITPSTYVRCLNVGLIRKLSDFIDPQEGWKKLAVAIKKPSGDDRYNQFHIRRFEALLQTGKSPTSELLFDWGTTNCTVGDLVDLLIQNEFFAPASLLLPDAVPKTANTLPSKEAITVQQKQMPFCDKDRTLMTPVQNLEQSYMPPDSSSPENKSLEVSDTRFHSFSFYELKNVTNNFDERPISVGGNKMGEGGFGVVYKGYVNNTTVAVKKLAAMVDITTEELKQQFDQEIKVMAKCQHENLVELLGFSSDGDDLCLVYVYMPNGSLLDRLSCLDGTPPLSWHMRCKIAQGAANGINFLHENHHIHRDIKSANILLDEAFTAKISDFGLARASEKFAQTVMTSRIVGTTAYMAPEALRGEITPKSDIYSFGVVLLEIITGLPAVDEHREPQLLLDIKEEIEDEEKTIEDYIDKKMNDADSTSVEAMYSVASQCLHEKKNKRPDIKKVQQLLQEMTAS
Assay: Degradation of IRAK4 protein in normal human PBMCs (AlphaLISA)
Format: cell-based
Settings: 24 h incubation
Please respond with the number in % and leave the unit unwritten.

Examples from the recorded data:
Cc1ccc(C(=O)N2CCC3(CCC(CN4CCC(n5cc(NC(=O)c6cnn7ccc(N8CC9(COC9)C8)nc67)c(C(F)F)n5)CC4)CC3)CC2)cc1N1CCC(=O)NC1=O = 96.2
COc1ccc(C(=O)N2CCC3(CCN(CCCN4CCC(n5cc(NC(=O)c6cnn7ccc(N8CCOCC8)nc67)c(C(F)F)n5)CC4)CC3)CC2)cc1N1CCC(=O)NC1=O = 107
COc1ccc(C(=O)N2CCC3(CCC(CN4CCC(n5cc(NC(=O)c6cnn7ccc(N8C[C@H]9C[C@@H]8CO9)nc67)c(C(F)F)n5)CC4)CC3)CC2)cc1N1CCC(=O)NC1=O = 97.7
COc1ccc(C(=O)N2CCC(CCN(C)C[C@H]3CC[C@H](n4cc(NC(=O)c5cnn6ccc(N7CCC[C@H](O)C7)nc56)c(C(F)F)n4)CC3)CC2)cc1N1CCC(=O)NC1=O = 98.2

Switching to the query record.
Could you tell me which Dmax is on file for O=C1CCN(c2cc(C(=O)N3CCC4(CCC(CN5CCC(n6cc(NC(=O)c7cnn8ccc(N9C[C@H]%10C[C@@H]9CO%10)nc78)c(C(F)F)n6)CC5)CC4)CC3)ccc2Cl)C(=O)N1 ?
99

Reference for the values: patent US20260174878A1
